# credit: the kinase profiling compilation of Christmann-Franck et al. (2016)

MEASURED_TARGET: RPS6KA1 KD1 KD2 (human) (UniProt Q15418)
Sequence (Q15418 whole entry, looked up): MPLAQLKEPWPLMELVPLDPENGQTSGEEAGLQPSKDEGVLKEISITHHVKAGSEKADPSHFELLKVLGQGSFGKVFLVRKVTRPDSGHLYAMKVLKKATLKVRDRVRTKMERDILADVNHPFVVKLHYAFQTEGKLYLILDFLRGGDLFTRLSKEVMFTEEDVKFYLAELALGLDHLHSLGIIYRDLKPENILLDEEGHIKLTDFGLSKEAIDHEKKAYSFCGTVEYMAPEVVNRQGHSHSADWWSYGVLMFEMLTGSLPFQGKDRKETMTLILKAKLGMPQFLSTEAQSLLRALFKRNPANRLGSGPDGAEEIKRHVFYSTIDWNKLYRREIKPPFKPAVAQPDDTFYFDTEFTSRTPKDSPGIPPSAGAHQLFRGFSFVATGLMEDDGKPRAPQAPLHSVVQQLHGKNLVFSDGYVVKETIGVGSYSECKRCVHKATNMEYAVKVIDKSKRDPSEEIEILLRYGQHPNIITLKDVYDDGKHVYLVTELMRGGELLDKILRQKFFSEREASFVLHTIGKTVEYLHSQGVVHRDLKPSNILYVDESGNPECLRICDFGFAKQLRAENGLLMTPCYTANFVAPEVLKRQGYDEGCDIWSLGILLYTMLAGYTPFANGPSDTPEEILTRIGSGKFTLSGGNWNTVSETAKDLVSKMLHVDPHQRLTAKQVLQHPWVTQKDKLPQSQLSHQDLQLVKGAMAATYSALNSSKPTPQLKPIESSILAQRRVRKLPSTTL
MEASUREMENT_PROTOCOL: radiometric filter-binding kinase assay
MEASUREMENT_CONDITIONS: compound 0.1 µM
QUANTITY_NAME: residual activity (%)

O=C(Nc1ccccc1-c1cn2c(CN3CCNCC3)csc2n1)c1cnc2ccccc2n1; 88

P = CCc1cncnc1N1CCN(Cc2nc3cc(C(F)(F)F)ccc3[nH]2)CC1
Q = Cc1ccc(Sc2cnc(Nc3cccc(Br)n3)s2)cc1C(=O)N1CCN(C(=O)CN)CC1
R = COc1cc(O)c2c(c1)[C@H]1OC1C[C@H](O)[C@H](O)C(=O)/C=C\C[C@H](C)OC2=O (some centres undefined)
# ascending order, key=residual activity Answer format: the labels, ordered as requested.
Q, P, R

---

MEASURED_TARGET: RPS6KA1 KD1 KD2 (human) (UniProt Q15418)
MEASUREMENT_PROTOCOL: radiometric filter-binding kinase assay
MEASUREMENT_CONDITIONS: compound 0.1 µM
QUANTITY_NAME: residual activity (%)

Below are worked cases with known answers.
NC(=O)c1cc(-c2ccnc(NC3CCCCC3)c2)nc(N2CCNCC2)c1; 88
NC1(c2ccc(-c3nc4ccn5c(=O)[nH]nc5c4cc3-c3ccccc3)cc2)CCC1; 101
CC1=C(CO)C(=O)O[C@@H]([C@@H](C)[C@H]2CC[C@H]3[C@@H]4C[C@H]5O[C@]56[C@@H](O)C=CC(=O)[C@]6(C)C4CC[C@]23C)C1 (stereo not given in full); 109

P = NC(=O)Nc1ccc2c(c1)/C(=C/c1cc(-c3cccnc3)c[nH]1)C(=O)N2
Q = O=C(O)c1ccc(-c2c[nH]c3ncc(-c4ccccc4)cc23)cc1C1CCCC1
Among P and Q , which shows a numerically higher residual activity result? Which one? Tell me its label.
Q

---

Test system: AKT1 (human), P31749 [S473D]
Sequence (P31749 whole entry S473D, looked up): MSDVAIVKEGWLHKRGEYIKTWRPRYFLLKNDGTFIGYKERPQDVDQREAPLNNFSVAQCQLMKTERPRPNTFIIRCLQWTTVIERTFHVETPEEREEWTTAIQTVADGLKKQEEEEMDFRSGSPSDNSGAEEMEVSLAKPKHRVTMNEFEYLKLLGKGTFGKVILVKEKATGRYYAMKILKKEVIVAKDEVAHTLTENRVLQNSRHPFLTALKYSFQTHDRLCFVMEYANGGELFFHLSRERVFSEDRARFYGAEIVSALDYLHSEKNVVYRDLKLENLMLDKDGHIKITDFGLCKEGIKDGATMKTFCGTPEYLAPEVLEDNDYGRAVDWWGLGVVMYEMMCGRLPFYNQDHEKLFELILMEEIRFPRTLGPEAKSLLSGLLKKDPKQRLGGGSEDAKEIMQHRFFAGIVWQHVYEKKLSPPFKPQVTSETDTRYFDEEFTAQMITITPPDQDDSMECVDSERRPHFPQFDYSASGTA
MEASUREMENT_PROTOCOL: radiometric filter-binding kinase assay
MEASUREMENT_CONDITIONS: compound 1.0 µM
QUANTITY_NAME: residual activity (%)

NC(=O)c1cc(-c2ccnc(NC3CCCCC3)c2)nc(N2CCNCC2)c1; 106
COc1cc(C(=O)N2CCOCC2)c(F)cc1Nc1ncc(C(F)(F)F)c(NC2CC2)n1; 93
Cc1cccc(-c2nn(C(=S)Nc3ccccc3)cc2-c2ccnc3ccccc23)n1; 106
C=C1C(=O)OC2C1CC/C(C)=C/CCC1(C)OC21 (stereo not given); 107
CCCCCc1ccc(/C=C/[C@H](O)[C@@H](CO)NC)cc1; 97

---

MEASURED_TARGET: HIPK2 (human) (UniProt Q9H2X6)
Sequence (Q9H2X6 whole entry, looked up): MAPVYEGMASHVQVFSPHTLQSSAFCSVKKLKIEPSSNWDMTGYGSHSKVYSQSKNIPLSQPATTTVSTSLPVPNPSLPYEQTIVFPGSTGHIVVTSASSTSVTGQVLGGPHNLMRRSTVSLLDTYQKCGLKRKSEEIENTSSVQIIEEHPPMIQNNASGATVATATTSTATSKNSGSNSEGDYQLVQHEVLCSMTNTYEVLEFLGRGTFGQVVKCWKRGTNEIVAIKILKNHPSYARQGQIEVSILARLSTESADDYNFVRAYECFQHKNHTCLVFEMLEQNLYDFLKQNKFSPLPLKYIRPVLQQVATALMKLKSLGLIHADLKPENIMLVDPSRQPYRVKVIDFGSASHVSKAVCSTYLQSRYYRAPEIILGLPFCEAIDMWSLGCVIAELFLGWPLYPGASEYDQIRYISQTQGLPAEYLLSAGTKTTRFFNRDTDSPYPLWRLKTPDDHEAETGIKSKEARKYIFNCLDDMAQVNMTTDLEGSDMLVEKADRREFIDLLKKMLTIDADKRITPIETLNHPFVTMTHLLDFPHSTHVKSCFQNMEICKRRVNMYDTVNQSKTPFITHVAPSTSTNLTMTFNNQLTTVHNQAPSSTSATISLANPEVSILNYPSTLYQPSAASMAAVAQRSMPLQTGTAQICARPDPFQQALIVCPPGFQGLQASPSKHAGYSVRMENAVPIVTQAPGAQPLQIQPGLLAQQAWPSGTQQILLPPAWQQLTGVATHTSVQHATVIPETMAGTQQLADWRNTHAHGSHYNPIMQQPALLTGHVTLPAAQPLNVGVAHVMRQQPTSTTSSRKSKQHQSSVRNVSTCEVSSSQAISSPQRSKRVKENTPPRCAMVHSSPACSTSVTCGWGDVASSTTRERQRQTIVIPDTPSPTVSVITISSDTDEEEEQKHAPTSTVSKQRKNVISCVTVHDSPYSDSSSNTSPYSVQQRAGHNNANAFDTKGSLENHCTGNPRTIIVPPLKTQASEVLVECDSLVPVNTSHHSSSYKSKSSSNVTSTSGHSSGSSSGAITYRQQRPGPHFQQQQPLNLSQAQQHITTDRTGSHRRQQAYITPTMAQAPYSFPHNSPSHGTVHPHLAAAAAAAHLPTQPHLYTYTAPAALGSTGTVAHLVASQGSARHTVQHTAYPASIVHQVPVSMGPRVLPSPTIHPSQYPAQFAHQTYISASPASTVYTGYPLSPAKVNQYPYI
MEASUREMENT_PROTOCOL: radiometric filter-binding kinase assay
MEASUREMENT_CONDITIONS: compound 10.0 µM
QUANTITY_NAME: residual activity (%)

Below are worked cases with known answers.
CC(C)C[C@H](NC(=O)CNC(=O)c1cc(Cl)ccc1Cl)B1OC(=O)CC(CC(=O)O)(C(=O)O)O1 (stereo not given in full); 88
C=CC(=O)N1CCC[C@@H](n2nc(-c3ccc(Oc4ccccc4)cc3)c3c(N)ncnc32)C1; 66
Oc1ccc2ccccc2c1SSc1c(O)ccc2ccccc12; 73
Cc1ccc(Sc2cnc(Nc3cccc(Br)n3)s2)cc1C(=O)N1CCN(C(=O)CN)CC1; 5
Oc1ccc(/C=C/c2cc(O)cc(O)c2)cc1; 30

1 = Cc1cc(SCc2sc(-c3ccc(C(F)(F)F)cc3)nc2C)ccc1OCC(=O)O
2 = Cc1nc(-c2ccc(OCC(C)C)c(C#N)c2)sc1C(=O)O
Returns: the label, 1 or 2 , whose recorded residual activity is the lower number. Which one? Tell me its label.
2

a = Cc1ccc(=O)n(-c2ccccc2)c1
b = NCC(=O)Nc1ccc(-n2nc(C(F)(F)F)cc2-c2ccc3c(ccc4ccccc43)c2)cc1
Among a and b , which shows a numerically higher residual activity result? Which one? Tell me its label.
a
(a: 106%, b: 69%)
